- Tested System: T1, Rhesus SLC34A2 (Rhesus, UniProt F7HDA3 1-690)
- T1 construct: whole, on cells
- T1 sequence: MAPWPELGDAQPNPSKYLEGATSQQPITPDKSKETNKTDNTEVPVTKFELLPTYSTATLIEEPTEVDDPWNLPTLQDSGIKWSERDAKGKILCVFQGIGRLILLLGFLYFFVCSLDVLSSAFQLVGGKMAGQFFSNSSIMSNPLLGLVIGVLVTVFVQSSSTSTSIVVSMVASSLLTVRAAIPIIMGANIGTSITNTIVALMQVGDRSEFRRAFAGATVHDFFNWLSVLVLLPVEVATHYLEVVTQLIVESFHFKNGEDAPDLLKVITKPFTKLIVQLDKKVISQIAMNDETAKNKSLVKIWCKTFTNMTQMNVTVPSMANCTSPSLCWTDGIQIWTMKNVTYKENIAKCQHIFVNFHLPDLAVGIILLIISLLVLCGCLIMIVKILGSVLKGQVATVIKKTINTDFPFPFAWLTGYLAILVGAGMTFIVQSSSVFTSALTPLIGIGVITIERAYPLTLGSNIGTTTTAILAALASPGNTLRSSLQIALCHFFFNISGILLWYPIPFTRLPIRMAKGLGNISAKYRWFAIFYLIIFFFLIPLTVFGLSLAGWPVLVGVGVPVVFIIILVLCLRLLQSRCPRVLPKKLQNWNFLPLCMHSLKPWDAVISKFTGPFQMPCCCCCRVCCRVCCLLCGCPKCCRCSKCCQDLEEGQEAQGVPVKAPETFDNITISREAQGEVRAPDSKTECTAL
- Experiment: FACS, HEK293/Rhesus SLC34A2 cells
Each item that follows carries a reported EC50.
Parameter: EC50

Binder	Meas Value
30H9B8F9.p1.z13 hIgG1 (antibody, V domains shown, humanized hIgG1) VH: QVQLVQSGAEVVKPGASVKMSCKTSGYTFTTNNMHWVKQAPGQGLEWIGAIYPGSGATAYNQKFKGRATLTADKSTSTAYMELSSLRSEATAVYYCARGMYGHGAMDYWGQGTSVTVSS VL: DIQLTQSPSFLSASVGDRVTITCKASQDVGTAVAWYQQKPGKAPKLLIYWATTRHSGVPSRFSGSGSGTEFTLTISSLQPEDFATYYCQQYSSNPLTFGQGTKLEIK	0.8 nM
63A11D5B4.p1.z15 hIgG1 (antibody, V domains shown, humanized hIgG1) VH: QVQLQQSGAEVVKPGASVKMSCKTSGYTFITYNMHWVKQAPGQGREWIGAIYPGSGDTSYNQKFKGRATLTADKSTSTAYMELSSLRSEDTAVYYCSISTIITTGAVDYWGQGTSVTVSS VL: DIQMTQSPSSLSTSVGDRVTITCKASQDVGTAVAWYQQKPGQSPKLLIYWTSTRHTGVPDRFSGSGSGTDFTLIIRSLQPEDVATYFCQQYSRIPLTFGGGTKVEIK	4.7 nM
